Data provenance is PubChem BioAssay (NCI).

TEST SUMMARY: NCI Yeast Anticancer Drug Screen. Data for the cln2 rad14 strain (AID 165);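 also: 0% = growth equal to vehicle treated cultures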
RUN CONDITIONS: S. cerevisiae cln2 rad14 strain, at 50.0 µM, active compounds read high
The panel holds about 79,000 compounds, 15% with a hit somewhere; the sample as a whole holds those more often.
Criterion: growth inhibition meeting or surpassing 60%. Met: 1 (yes). Not met: 0 (no).

Does O=[N+]([O-])c1cccc2nc3ccccc3c(NCCCN3CCOCC3)c12 have a reported growth inhibition of at least 60%? 1 (yes)

Does O=C(NCCCNCCCNC(=O)c1cc(-c2ccccc2)nc2ccccc12)c1cc(-c2ccccc2)nc2ccccc12 have a reported growth inhibition of at least 60%? 0 (no)

Does CC(=O)N/N=C/C(C)(C)C(C)(C)/C=N/NC(C)=O have a reported growth inhibition of at least 60%? 0 (no)

---

TEST SUMMARY: NCI Yeast Anticancer Drug Screen. Data for the mlh1 strain (AID 171);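 also: 0% = growth of vehicle-treated control cultures of the same strain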
RUN CONDITIONS: S. cerevisiae mlh1 strain growth inhibition; at 3.7 µM; active compounds read high
The panel holds about 79,000 compounds, 15% with a hit somewhere; the sample as a whole holds those more often.
This section presents compounds with their documented growth inhibition values.
API: value field is a number in %; no unit string.

Answered cases to consult:
INSERT INTO measurements (compound, units_text, measurement) VALUES
  ('CN(C)c1nc2sc3c(c2c(=O)o1)CCCC3', '%', -4),
  ('CCS(=O)(=O)c1ccc(/C=C/C=N/NC(=S)NCC(C)C)cc1', '%', 0),
  ('O=C1c2ccccc2-c2n[nH]c3cccc1c23', '%', -38),
  ('CCCCCCCCCCC(=O)Cl', '%', 7),
  ('O=[N+]([O-])C(=C(Sc1ccccc1)Sc1ccccc1)C(Cl)=C(Cl)Cl', '%', 19),
  ('CC(=O)Oc1cc(-c2cc(OC(C)=O)c(OC(C)=O)c3ccccc23)c2ccccc2c1OC(C)=O', '%', 3),
  ('CN1c2ccc(Cl)cc2C(=O)NC1c1ccc([N+](=O)[O-])s1 (stereo not given)', '%', 14),
  ('c1ccc2c(c1)C(=NCCCN1CCCCCC1)c1cccn1-2', '%', -2),
  ('CCOC(=O)c1cnc2c(C(F)(F)F)cccc2c1N=[N+]=[N-]', '%', 0),
  ('Nc1ccn(C2OC(CO)C3[O][Sn]([c]4ccccc4)([c]4ccccc4)[O]C32)c(=O)n1 (stereo not given)', '%', 0);

The reported growth inhibition of the compound OC1(c2ccccc2)CSC2=Nc3ccccc3C3CCN1N23 (stereo not given) was -100

The reported growth inhibition of the compound COc1ccccc1/C=C1\Sc2scc(-c3cccc([N+](=O)[O-])c3)[n+]2C1=O was 89

The reported growth inhibition of the compound CC(=O)OCc1ccc(O)c(C=O)c1 was -7

The reported growth inhibition of the compound O=C(/C=C\c1ccc(Cl)cc1Cl)c1cccs1 was 0

The reported growth inhibition of the compound CCC#CCCCOC(=O)c1cc([N+](=O)[O-])cc([N+](=O)[O-])c1 was 0

The reported growth inhibition of the compound CC1C(NNc2ccccc2)Oc2cc3c(cc2C1c1ccccc1O)OCO3 (stereo not given) was 61

The reported growth inhibition of the compound CN(C)c1ccc(Sc2ccc3nc(N)nc(N)c3c2)cc1 was -8

The reported growth inhibition of the compound C=CC(C)(O)CCC1C(=C)C(O)CC2C(C)(C)CCCC12C (stereo not given) was -12

---

TEST SUMMARY: NCI Yeast Anticancer Drug Screen. Data for the mec2-1 strain (AID 157)
RUN CONDITIONS: S. cerevisiae mec2-1 strain, at 5.0 µM (retest, dose inferred, filed as 0.5)
About 79,000 compounds went through this panel and 15% of them were active in at least one assay; those are over-represented in the sample as a whole. Activity calls are given as the source filed them. Rule as the data show it: active = growth inhibition above about 70%; inactive = the rest.
Give one outcome, nothing more. List: active, inactive

Use these answered entries as a reference point.
INSERT INTO measurements (compound_structure, assigned_category) VALUES
  ('Brc1ccc(-c2cc3c(cc2C2SCCS2)OCO3)cc1', 'inactive'),
  ('CCCCCCCCCC/C=C\C(=O)O', 'inactive'),
  ('c1ccc2c(c1)Oc1cccc3cccc-2c13', 'active');

Assay outcome for Cc1ccc2[nH]c3c(C)c4cc[n+](C)cc4c(C)c3c2c1 : what was it? inactive

---

This section presents compounds with their documented growth inhibition values.
TEST SUMMARY: NCI Yeast Anticancer Drug Screen. Data for the wt2 strain (AID 169);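 also: 0% = growth of vehicle-treated yeast cultures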
RUN CONDITIONS: S. cerevisiae wt2 strain growth inhibition; at 100.0 µM; active compounds read high
This is part of a sample that, as a whole, favours compounds with a hit. Of some 79,000 tested, about 15% had one in any assay. Activity calls are given as the source filed them. Cut-off read from the data, not from the text of the source: active = growth inhibition above about 70%; inactive = the rest.

INSERT INTO assay_data (compound, measurement) VALUES
  ('CCCCCCCCCCNC(=O)OCC', '99% (active)'),
  ('O=C1C=CC(=O)N1c1ccc2c(c1)Cc1cc(NC(=O)C(F)(F)F)ccc1-2', '67% (inactive)'),
  ('O=C1c2ccccc2C(=O)c2c(NC3CCCCC3)ccc(Nc3ccc(S(=O)(=O)O)cc3)c21', '62% (inactive)'),
  ('CCC[CH2][Ge]([CH2]CCC)([CH2]CCC)[O]C(=O)C(OC)c1ccccc1 (stereo not given)', '98% (active)'),
  ('CCCc1cc(C(=O)OCC)cc(CCC)c1O', '94% (active)'),
  ('CCOc1ccc2c(c1)c(CC(=O)O)cn2C', '61% (inactive)'),
  ('CCC(=O)Oc1c(Cl)cc(Cl)c2ccccc12', '20% (inactive)'),
  ('Fc1ccc(NC(=S)SCc2ccc3c(c2)OCO3)cc1F', '94% (active)'),
  ('NNC(=O)CCc1ccc2ccc3ccccc3c2c1', '32% (inactive)'),
  ('Cc1ccc2[nH]c3c(C)c4cc[n+](C)cc4c(C)c3c2c1', '95% (active)');

The reported growth inhibition of the compound O=C(O)c1cccc(-c2c3ccc(=O)cc-3oc3cc(O)ccc23)c1 was 95% (active)

The reported growth inhibition of the compound COc1cc(C2SCC(=O)N2c2ccc(-c3ccc(-n4c(-c5ccccc5)nc5ccccc5c4=O)cc3)cc2)cc(OC)c1OC (stereo not given) was -8% (inactive)

The reported growth inhibition of the compound CC(=O)OCCOCNC(=S)N/N=C(\C)c1cnccn1 was 74% (active)

The reported growth inhibition of the compound Cc1ccc2ccc3cccc4ccc1c2c34 was 18% (inactive)

The reported growth inhibition of the compound N#Cc1c(N)[nH]c2ccc(Sc3ccccc3)cc12 was 96% (active)

The reported growth inhibition of the compound O=C(N=Nc1ccccc1Cl)NNc1ccccc1Cl was 8% (inactive)

---

This section presents compounds with their documented growth inhibition values.
TEST SUMMARY: NCI Yeast Anticancer Drug Screen. Data for the mlh1 rad18 strain (AID 175)
RUN CONDITIONS: S. cerevisiae mlh1 rad18 strain growth inhibition; at 50.0 µM; active compounds read high
About 79,000 compounds went through this panel and 15% of them were active in at least one assay; those are over-represented in the sample as a whole.
API: value field is a number in %; no unit string.

Answered cases to consult:
INSERT INTO assay_data (compound, readout_label, units_text, measurement) VALUES
  ('C(CCSC1=NCCN1)CSC1=NCCN1 (tested in a mixture with another compound)', 'growth inhibition', '%', 99),
  ('Clc1ccc(SC(/C=C/NNC2=NC(c3ccccc3)C(c3ccccc3)=NN2)c2ccccc2)cc1 (stereo not given)', 'growth inhibition', '%', 58.4),
  ('CCCC/C=C/C(CC)(C(=O)OCC)C(=O)OCC', 'growth inhibition', '%', -8.65),
  ('O=C(c1ccc(Cl)cc1)C1OC12C(=O)Nc1ccccc12 (stereo not given)', 'growth inhibition', '%', 99.5);

Moving on to another compound below.
The reported growth inhibition of the compound CCCCCCCCCCCCCCCCCCN(C)CC(COP(=O)([O-])OCC[N+](C)(C)C)OC (stereo not given) was 89.5

---

TEST SUMMARY: NCI Yeast Anticancer Drug Screen. Data for the rad50EPP+ strain (AID 151);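 also: 0% = growth of vehicle-treated control cultures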
RUN CONDITIONS: S. cerevisiae rad50 mutant strain, at 3.7 µM, active compounds read high
Compounds without any hit were thinned out: in the full panel of roughly 79,000, 15% have a hit.
This section presents compounds with their documented growth inhibition values.
API: value field is a number in %; no unit string.

Answered cases to consult:
INSERT INTO measurements (compound, readout_label, measurement) VALUES
  ('O=C1CSC(/C=C/c2ccccc2)N1c1ccc(-c2ccc(-n3c(-c4ccccc4)nc4ccccc4c3=O)cc2)cc1 (stereo not given)', 'growth inhibition', 10),
  ('O=C(Nc1ccc(Cl)cc1)OCC#CCCl', 'growth inhibition', 92);

The reported growth inhibition of the compound CCOP(=O)(OCC)C(Cc1ccccc1)N=C(c1ccccc1)c1ccccc1 (stereo not given) was 12

The reported growth inhibition of the compound c1ccc2c(c1)-c1nc3ccccc3cc1C2N1CCOCC1 (stereo not given) was 25

The reported growth inhibition of the compound O=Cc1cccc2ccc3ccccc3c12 was 15
